Tested on: 266295-075-R-J1-PDC spheroid viability;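 note: spheroids exposed to compounds for seven days before readout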
Test: Anticancer human tumor 266295-075-R-J1-PDC patient-derived head and neck squamous carcinoma cell line growth inhibition [POLQ]
Conditions: second compound 0.316 µM; first compound 0.0316 µM; active compounds read low; spheroids with HUVEC and MSC
Below, each entry is listed with its recorded viability, T/C.
# value in %; strip the unit string

Below, each entry is followed by its recorded viability, T/C result.
| COMPOUND | MEASUREMENT UNIT | viability, T/C |
| --- | --- | --- |
| CC1COCCN1c1cc(C2(S(C)(=N)=O)CC2)nc(-c2ccnc3[nH]ccc23)n1 (stereo not given) + Nc1ccc(C#CCN(C(=O)Cc2ncc(C(F)(F)F)cc2C(F)(F)F)c2ccc(F)cc2)nn1 | % | 81.9 |
| COc1cccc(OCCCN)c1-c1cc(Nc2cnc(C#N)cn2)n[nH]1 + Nc1ccc(C#CCN(C(=O)Cc2ncc(C(F)(F)F)cc2C(F)(F)F)c2ccc(F)cc2)nn1 | % | 73.8 |
| CCc1cc2c(N3CCc4c(cc(Cn5ccnc5)cc4-c4cn(C)nc4C(F)(F)F)C3=O)ccnc2c(OC)n1 + Cc1cccc(N(C)C(=O)C2C(O)CCN2c2nc(C)cc(C(F)(F)F)c2C#N)c1 | % | 119 |
| COc1ccc([C@@H](O)c2cc(-c3ncnc4cc(N5CCOCC5)ccc34)c(F)cc2Cl)nn1 + Cc1cccc(N(C)C(=O)C2C(O)CCN2c2nc(C)cc(C(F)(F)F)c2C#N)c1 | % | 101 |

Proceeding to the next compound to report its viability, T/C.
**Q:** # input compound: COc1cccc2c1C(=O)c1c(O)c3c(c(O)c1C2=O)CC(O)(C(=O)CO)CC3OC1CC(N)C(O)C(C)O1 (stereo not given) + Cc1cccc(N(C)C(=O)C2C(O)CCN2c2nc(C)cc(C(F)(F)F)c2C#N)c1 ; wanted: its viability, T/C
**A:** 84.5

Values were extracted from PubChem BioAssay AID1963853.
